target: T1, recombinant human TfR (r human TfR: Sino Biological Inc.) (human, UniProt P02786 89-760); assay: BLI (Octet RED96), His-tagged TfR ECD loaded on Ni-NTA sensor, antibody as analyte
T1 construct: Bought product; also called r human TfR-ECD (Histag); hTfR; not shown: histidine tag attached to the N-terminus
T1 sequence (P02786 89-760): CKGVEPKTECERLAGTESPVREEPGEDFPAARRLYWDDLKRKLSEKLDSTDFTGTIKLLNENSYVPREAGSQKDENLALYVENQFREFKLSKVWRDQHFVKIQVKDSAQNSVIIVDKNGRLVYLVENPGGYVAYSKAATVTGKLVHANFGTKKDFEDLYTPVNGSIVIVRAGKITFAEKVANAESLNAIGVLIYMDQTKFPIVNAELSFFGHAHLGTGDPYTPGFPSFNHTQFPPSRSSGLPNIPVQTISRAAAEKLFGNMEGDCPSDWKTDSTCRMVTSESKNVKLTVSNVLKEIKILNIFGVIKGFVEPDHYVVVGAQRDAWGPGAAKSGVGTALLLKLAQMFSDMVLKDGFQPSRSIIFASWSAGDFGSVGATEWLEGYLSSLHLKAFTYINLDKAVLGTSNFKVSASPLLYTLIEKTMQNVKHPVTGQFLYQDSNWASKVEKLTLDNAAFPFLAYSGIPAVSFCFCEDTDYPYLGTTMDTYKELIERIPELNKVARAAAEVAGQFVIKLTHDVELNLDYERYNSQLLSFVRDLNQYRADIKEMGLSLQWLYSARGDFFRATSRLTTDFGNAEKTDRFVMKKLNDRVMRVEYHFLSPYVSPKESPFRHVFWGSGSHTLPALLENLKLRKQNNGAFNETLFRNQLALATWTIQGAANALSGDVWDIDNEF
property-name: koff (s⁻¹)
Give bare numbers, in s⁻¹.

Would you mind giving koff for every binder in the list below?
1. anti-hTfR antibody No. 6 (antibody, V domains shown, Mouse hybridoma antibody purified on Protein G; also called mouse anti-hTfR antibody No. 6; product of Clone 6 line) VH: EVQLQESGPGLVAPSQSLSITCSVSGFSLSTYGVYWVRQPPGKGLEWLGIIWGDGSTNYHSALISRLTISKDNSKSQVFLKLNSLQTADTATYYCAKPDDVWGAGTTVTVSS VL: DIVLTQTPSSLSASLGERVSLTCRASQEISGYLSWLQQKPDGTIKRLIYAASTLDSGVPKRFSGSRSGSDYSLTISSLESEDFADYYCLQYSSYPRTFGGGTKLEIK
2. anti-hTfR antibody No. 10 (antibody, V domains shown, Mouse hybridoma antibody purified on Protein G; also called mouse anti-hTfR antibody No. 10; product of Clone 10 line) VH: EVQLQESGGGLVKPGGSLKLSCEASGITFRNYAMSWVRQTPEKRLEWVATISSYGGYTYYADSVKGRFTVSRDNAGNTLYLQMSSLRSEDTAMYHCARQEVPYPYPMDNWGQGTSVIVSS VL: DIVMTQTPSSLSASLGERVSLTCRPSQEISGYLSWLQQKPDGTIKRLIYAASTLDSGVPKRFSGSRSGSDYSLTISSLESEDFADYYCLQYASYPRTFGGGTKLEIK
3. anti-hTfR antibody No. 12 (antibody, V domains shown, Mouse hybridoma antibody purified on Protein G; also called mouse anti-hTfR antibody No. 12; product of Clone 12 line) VH: EVQLQESGAELARPGTSVKVSCKAAGYVFINYLIEWVKQRPGQGLEWIGVIHSGSGGTNYNDNFKDKATLTRDVSSSTAYMQLSSLTSDDSAVYFCARRNFGNYYFDYWGQGTTLTVSS VL: DIVLTQSHKFMSTVIGDRVSITCKASHDVKTAVAWYQQTPGQSPKLLTYWSSTRHTGVPDRFTGSGSGTDYTLTISSVQAEDLALYYCQQHFSTPLTFGAGTKLELK

Result ::
0.000723
0.000766
0.000723

All values here come from patent US20240262926A1.
